Origin of measurements: PubChem BioAssay (NCI)

- Test system: UO-31 renal
- assay-info: NCI-60 one-dose screen, 48 h (100 = growth as untreated, 0 = no growth, -100 = all killed)
- condition-info: 10 µM unless noted
This is part of a sample that, as a whole, favours compounds with a hit. Of some 83,000 tested, about 20% had one in any assay. Active and inactive are the calls of the source. The calls were made as follows: active = growth percent below 10; inactive = the rest.
assay-metric: growth

Solved entries (count: 2):
molecule	val
CC1=C2[C@@H](CC1)[C@]1(C)O[C@@](C3CCCCC3)(C[C@H]1OC(=O)CO)[C@H]2OC(=O)/C=C/c1ccccc1	-5.9% (active)
Cc1ccc(-c2nc3nc(-c4ccccc4)nc(N4CCCN(S(C)(=O)=O)CC4)c3o2)cc1	59.3% (inactive)

q: Consider the molecule c1nc2ccc(-c3cc4ccc5[nH]ncc5c4c4c3CCCC4)cc2[nH]1 . State its measured growth.
a: 92.9% (inactive)

q: Please report the measured growth for COC(=O)N1CC(Oc2ccccn2)C2CC1c1ccccc1O2 (centres undefined)
a: 88.6% (inactive)

q: Note down growth recorded for C#COc1cccc(Nc2ncnc3cc(NC(=O)[C@@H](C)Cl)ccc23)c1
a: 29.2% [6.25 µM] (inactive)

q: Check the records and state growth for CCN1CCN(CC(=O)Nc2ccc(-c3cn4c(n3)sc3cc(Oc5ccnc(C(=O)NC)c5)ccc34)cc2)CC1
a: 60.1% (inactive)

q: Using known records, supply growth for CSC1=Nc2c(c(C)c(-c3ccccc3)n2CCCC(=O)O)C2=NC(=O)C[C@H](C)N12
a: 88.6% (inactive)

q: Respond only with growth recorded for N#CSc1c[nH]c2cccc(/C=C/C(=O)/C=C(O)/C=C/c3cccc4[nH]cc(SC#N)c34)c12
a: -87.3% (active)

q: Please give the documented growth of COCCn1cc(-c2csc(-c3c[nH]c4ccc(Br)cc34)n2)c2cccnc21
a: 27.8% (inactive)

----------
- Tested on: MALME-3M melanoma
- assay-info: NCI-60 one-dose screen, 48 h (100 = growth as untreated, 0 = no growth, -100 = all killed)
- condition-info: 10 µM unless noted
This is part of a sample that, as a whole, favours compounds with a hit. Of some 83,000 tested, about 20% had one in any assay. The source made the active and inactive calls. The calls were made as follows: active = growth percent below 10; inactive = the rest.
assay-metric: growth

q: Return reported growth. Input compound: COc1cc(C2C(C(=O)OCc3ccccc3)=C(C)NC(C)=C2C(=O)OCc2ccccc2)cc(OC)c1OC
a: 18% (inactive)

q: Item CCN(CC)CCN1C(=O)c2c(c(C)c3c(oc4ccc(OC)cc43)c2C)C1=O : provide growth
a: 91.9% (inactive)

q: Could you please provide reported growth for CN(C)S(=O)(=O)Oc1ccc(-c2sc3cc(OS(=O)(=O)N(C)C)ccc3c2C(=O)c2ccc(OCCN3CCCCC3)cc2)cc1 ? Thanks!
a: 17.7% (inactive)

q: Report measured growth; entry is O=C1c2cccc3cccc(c23)C(=O)N1C/C=C/c1ccc2c3c(cccc13)C(=O)N(CCO)C2=O
a: 75.5% (inactive)

q: Please list growth recorded for the compound O=C(Nc1ccccc1N1CCCC1=O)c1oc2ccc(F)cc2c1-c1cnn(-c2ccccc2)c1
a: 28.8% [50 µM] (inactive)

----------
Reported growth by item:
- Test system: NCI-H460 lung
- assay-info: NCI-60 one-dose screen, 48 h (100 = growth as untreated, 0 = no growth, -100 = all killed)
- condition-info: 10 µM unless noted
The panel holds about 83,000 compounds, 20% with a hit somewhere; the sample as a whole holds those more often.
Respond numerically; units are % and should not be typed.

molecule	test-target	growth (%)
C#CCO[C@H]1CC(CC#C)(CC#C)C(=O)[C@@H]2[C@H]1[C@H]1C[C@@H]3[C@@]4(C)CCC[C@@](C)(C(=O)OC)[C@@H]4CC[C@@]23C=C1C(C)C	NCI-H460 lung	97.8
Cc1c(CC(=S)N2CCOCC2)nnn1-c1cccc(C(F)(F)F)c1	NCI-H460 lung	103
CC(=O)Oc1ccc(OC(C)=O)c2ccccc12	NCI-H460 lung	107
COc1ccc2c(c1)c(-c1nc(-c3c[nH]c4ncccc34)cs1)cn2CCCN1CCOCC1	NCI-H460 lung	25.7
CC(C)(C)n1cc(-c2ccnc(NCCNS(=O)(=O)c3ccc(O)cc3)c2)c(-c2cccc(O)c2)n1	NCI-H460 lung	104

q: Report measured growth; entry is Cc1nnc(-c2ccc3c(c2)nc(/C=C/c2ccccc2)n3C2CCCCC2)o1
a: 82.4

q: Quick one: give measured growth for COc1ccc(C2=CC(c3cc(OC)c(OC)c(OC)c3)n3ncnc3N2)cc1 (centres undefined)
a: 0.735

q: Look up growth of COc1ccc(/C=C/C(=O)c2cc(OC)c(OC)c(OC)c2)cc1OCC(=O)Nc1nc2ccc(OC(F)(F)F)cc2s1 and report it.
a: -22.9

q: Please supply the value of reported growth for the item Cc1ccc(/C=C/C(=O)Nc2ncc(Cc3ccc(F)cc3)s2)o1
a: 30.4
